For each entry below, report its IC50 value.
# ASSAYED_TARGET: human ACC2 (Homo sapiens, UniProt O00763)
# Construct: made in house; host or cells: insect cells (baculoviral expression system)
# Sequence (O00763 129-2458 limits assumed): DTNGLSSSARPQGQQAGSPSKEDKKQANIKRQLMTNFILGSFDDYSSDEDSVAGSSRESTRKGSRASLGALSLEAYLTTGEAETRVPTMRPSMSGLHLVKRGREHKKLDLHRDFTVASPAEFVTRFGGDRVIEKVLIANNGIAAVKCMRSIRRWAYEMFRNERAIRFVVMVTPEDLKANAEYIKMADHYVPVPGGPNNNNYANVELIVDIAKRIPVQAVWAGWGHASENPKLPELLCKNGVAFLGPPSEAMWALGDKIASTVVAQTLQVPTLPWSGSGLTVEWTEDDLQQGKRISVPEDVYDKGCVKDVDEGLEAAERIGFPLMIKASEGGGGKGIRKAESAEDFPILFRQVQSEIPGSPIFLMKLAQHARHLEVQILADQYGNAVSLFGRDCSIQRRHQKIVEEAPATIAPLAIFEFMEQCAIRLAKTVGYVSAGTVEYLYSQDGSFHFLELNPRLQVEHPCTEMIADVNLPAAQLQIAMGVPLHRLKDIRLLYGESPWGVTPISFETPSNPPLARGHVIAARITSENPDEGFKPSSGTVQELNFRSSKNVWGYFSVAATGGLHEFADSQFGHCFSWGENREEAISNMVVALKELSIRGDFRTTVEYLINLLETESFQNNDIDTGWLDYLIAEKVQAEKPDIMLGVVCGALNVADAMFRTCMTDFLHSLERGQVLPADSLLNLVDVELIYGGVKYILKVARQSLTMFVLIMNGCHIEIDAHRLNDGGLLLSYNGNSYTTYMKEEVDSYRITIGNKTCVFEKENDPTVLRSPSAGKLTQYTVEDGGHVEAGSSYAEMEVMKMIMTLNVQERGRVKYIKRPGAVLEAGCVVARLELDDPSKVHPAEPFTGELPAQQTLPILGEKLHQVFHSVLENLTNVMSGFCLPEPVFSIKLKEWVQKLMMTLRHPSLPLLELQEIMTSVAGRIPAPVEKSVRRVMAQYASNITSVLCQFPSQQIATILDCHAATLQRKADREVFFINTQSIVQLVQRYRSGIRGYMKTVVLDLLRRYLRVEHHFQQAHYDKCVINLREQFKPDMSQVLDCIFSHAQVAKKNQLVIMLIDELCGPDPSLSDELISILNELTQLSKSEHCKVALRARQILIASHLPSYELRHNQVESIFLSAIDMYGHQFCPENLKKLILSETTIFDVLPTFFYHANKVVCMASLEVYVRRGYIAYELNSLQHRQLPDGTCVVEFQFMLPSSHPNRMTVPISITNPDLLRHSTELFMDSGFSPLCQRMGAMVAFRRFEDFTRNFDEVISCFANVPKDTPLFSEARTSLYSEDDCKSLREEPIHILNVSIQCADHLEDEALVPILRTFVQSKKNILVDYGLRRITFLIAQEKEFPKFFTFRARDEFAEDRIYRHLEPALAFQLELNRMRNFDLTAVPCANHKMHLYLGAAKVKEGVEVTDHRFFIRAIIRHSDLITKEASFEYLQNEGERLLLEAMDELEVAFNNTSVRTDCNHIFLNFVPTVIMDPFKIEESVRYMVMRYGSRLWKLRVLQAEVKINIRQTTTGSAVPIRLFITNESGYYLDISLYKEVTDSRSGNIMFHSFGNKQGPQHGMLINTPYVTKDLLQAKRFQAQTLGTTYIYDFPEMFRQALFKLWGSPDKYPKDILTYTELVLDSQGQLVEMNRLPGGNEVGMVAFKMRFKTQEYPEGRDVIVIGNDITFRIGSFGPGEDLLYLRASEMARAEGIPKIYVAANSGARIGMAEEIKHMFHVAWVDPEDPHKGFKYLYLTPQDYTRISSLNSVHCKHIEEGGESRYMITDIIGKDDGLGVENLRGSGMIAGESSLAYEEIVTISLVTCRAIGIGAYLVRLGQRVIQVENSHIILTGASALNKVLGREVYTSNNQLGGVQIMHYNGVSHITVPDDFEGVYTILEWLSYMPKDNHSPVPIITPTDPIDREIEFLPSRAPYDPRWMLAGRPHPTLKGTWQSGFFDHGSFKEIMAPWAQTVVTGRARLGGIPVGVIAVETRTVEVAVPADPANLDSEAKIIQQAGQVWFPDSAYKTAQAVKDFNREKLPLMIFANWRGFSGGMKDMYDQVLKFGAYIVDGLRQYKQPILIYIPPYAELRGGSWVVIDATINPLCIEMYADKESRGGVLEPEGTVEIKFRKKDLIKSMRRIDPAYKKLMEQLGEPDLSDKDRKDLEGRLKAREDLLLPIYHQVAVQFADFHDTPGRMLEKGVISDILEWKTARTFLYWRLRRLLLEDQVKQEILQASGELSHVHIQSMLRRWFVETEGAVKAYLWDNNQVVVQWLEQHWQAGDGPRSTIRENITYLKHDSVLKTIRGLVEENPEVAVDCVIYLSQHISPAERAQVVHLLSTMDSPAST
# ASSAY_NOTES: ACC2 assay, spectrophotometric 384 well assay (NADH-linked, coupled lactate dehydrogenase/pyruvate kinase)
# Format: biochemical
# RECORDED_CONDITIONS: ACC2 assay, hACC2 construct lacking 128 N-terminal amino acids, 25° C., 340 nm; read-out: IC50
Kindly answer with a numeric value in nM, unit omitted.

Problem: Param item = CC(=O)N[C@@H](C)c1ccc(C2CCN(c3ccnc(OCc4ccncc4)c3)CC2)cc1 ; retrieve measured IC50.
Result: 1200

Problem: Try this compound too: CC(=O)N[C@@H](C)c1ccc(C2CCN(c3ncc(-c4ccccc4)cn3)CC2)cc1
Result: 30

Problem: Try this compound too: CCOc1ccc(N2CCC(c3ccc([C@H](C)NC(=O)N(C)C)cc3)CC2)c(F)c1
Result: 140

Problem: Try this compound too: CC(=O)N[C@@H](C)c1ccc(C2CCN(c3ncc(C(=O)Nc4ccc5c(c4)OCO5)cn3)CC2)cc1
Result: 1100

Problem: Try this compound too: CCOc1ccc(N2CCC(c3ccc([C@H](C)NC(C)=O)cc3)CC2)c(OCC)n1
Result: 530

Problem: Try this compound too: CCOc1ccc(N2CCC(c3ccc([C@H](C)NC(C)=O)cc3)CC2)cc1Cl
Result: 300

Problem: Try this compound too: CCCOc1ccc(N2CCC(c3ccc([C@H](C)NC(=O)OC)cc3)CC2)c(OC)c1
Result: 840

Problem: Try this compound too: CCOc1ccc(N2CCC(c3ccc([C@H](C)NC(=O)N(C)CC4CC4)cc3)CC2)cc1
Result: 3700

Problem: Try this compound too: CC(=O)N[C@@H](C)c1ccc(C2CCN(c3ccc(Cl)cc3)CC2)cc1
Result: 700

Problem: Try this compound too: CC(=O)N[C@@H](C)c1ccc(C2CCN(c3ccc(OCc4ccccc4)cc3)CC2)cc1
Result: 150

Problem: Try this compound too: CC(=O)N[C@@H](C)c1ccc(C2CCN(c3cccc(C(=O)N4CCc5ccccc5C4)c3)CC2)cc1
Result: 1600

Problem: Try this compound too: CC(=O)N[C@@H](C)c1ccc(C2CCN(c3nc(N4CCCCC4)ncc3C(F)(F)F)CC2)cc1
Result: 790

Problem: Try this compound too: CC(=O)N[C@@H](C)c1ccc(C2CCN(c3ccc(OC4CCCCC4)nc3)CC2)cc1
Result: 250

Problem: Try this compound too: CC(=O)N[C@@H](C)c1ccc(C2CCN(c3ncc(C(=O)N4Cc5ccncc5C4)cn3)CC2)cc1
Result: 6000

Problem: Try this compound too: CCOc1ncc(N2CCC(c3ccc([C@H](C)NC(=O)C4CC4)cc3)CC2)cn1
Result: 3900

Problem: Try this compound too: CC(=O)N[C@@H](C)c1ccc(C2CCN(c3ncc(C(=O)NCCn4ccnc4)cn3)CC2)cc1
Result: 17900

----------
# ASSAYED_TARGET: human ACC2 (Homo sapiens, UniProt O00763)
# Construct: made in house; host or cells: insect cells (baculoviral expression system)
# ASSAY_NOTES: ACC2 assay, spectrophotometric 384 well assay (NADH-linked, coupled lactate dehydrogenase/pyruvate kinase)
# Assay type: biochemical
# RECORDED_CONDITIONS: ACC2 assay, hACC2 construct lacking 128 N-terminal amino acids, 25° C., 340 nm; read-out: IC50
Rule for this label: Criterion met means IC50 is less than 3000 nM; Criterion not met means IC50 is at least 3000 nM.

Problem: Consider C[C@H](NC(=O)N(C)C)c1ccc(C2CCN(c3ncc(-c4ccc5c(c4)CCO5)cn3)CC2)cc1 [Example 10.99] . Does its IC50 lie strictly below 3000 nM?
Result: Criterion met

Problem: Try this compound too: CCOc1ccc(N2CCC(c3ccc([C@H](C)NC(=O)N4CCCCC4)cc3)CC2)cc1 [Example 14.69]
Result: Criterion not met

Problem: Try this compound too: CC(=O)N[C@@H](C)c1ccc(C2CCN(c3ccc(OCC4CC4)c(Cl)c3)CC2)cc1 [Example 9.46]
Result: Criterion met

Problem: Try this compound too: CC(=O)N[C@@H](C)c1ccc(C2CCN(c3cc(C)ccn3)CC2)cc1 [Example 5.41]
Result: Criterion not met

Problem: Try this compound too: CC(=O)N[C@@H](C)c1ccc(C2CCN(c3ccc(OCC4CC4(F)F)cc3)CC2)cc1 (some centres unmarked) [Example 8.66]
Result: Criterion met

Problem: Try this compound too: CC(=O)N[C@@H](C)c1ccc(C2CCN(c3ccnc(NCc4ccoc4)n3)CC2)cc1 [Example 11.100]
Result: Criterion not met

Problem: Try this compound too: CC(=O)N[C@@H](C)c1ccc(C2CCN(c3ncc(-c4ccccc4)c(Cl)n3)CC2)cc1 [Example 5.50]
Result: Criterion met

Problem: Try this compound too: CC(=O)N[C@@H](C)c1ccc(C2CCN(c3ncc(C(=O)N4CCCC4CN(C)C)cn3)CC2)cc1 (some centres unmarked) [Example 18.88]
Result: Criterion not met

Problem: Try this compound too: CC(=O)N[C@@H](C)c1ccc(C2CCN(c3ncc(C(=O)N(C)Cc4cccnc4)cn3)CC2)cc1 [Example 18.31]
Result: Criterion not met

Problem: Try this compound too: C[C@H](NC(=O)C1CC1)c1ccc(C2CCN(c3ccnc(Oc4ccccc4)c3)CC2)cc1 [Example 3.14]
Result: Criterion met

Problem: Try this compound too: CCOc1ccc(N2CCC(c3ccc([C@H](C)NC(=O)CN)cc3)CC2)cc1 [Example 35.1]
Result: Criterion not met

Problem: Try this compound too: CC(=O)N[C@@H](C)c1ccc(C2CCN(c3ccnc(OC4CCC4)c3)CC2)cc1 [Example 19.2]
Result: Criterion met

Problem: Try this compound too: COc1ccc(N2CCC(c3ccc([C@H](C)NC(C)=O)cc3)CC2)nc1 [Example 5.2]
Result: Criterion met

Problem: Try this compound too: CC(=O)N[C@@H](C)c1ccc(C2CCN(c3ccnc(OCC4(C#N)CC4)c3)CC2)cc1 [Example 19.28]
Result: Criterion met

Problem: Try this compound too: COCCOc1ccc(N2CCC(c3ccc([C@H](C)NC(C)=O)cc3)CC2)cc1C [Example 8.19]
Result: Criterion not met

Problem: Try this compound too: CCCN(C)C(=O)N[C@@H](C)c1ccc(C2CCN(c3ccc(OCC)cc3)CC2)cc1 [Example 14.54]
Result: Criterion met

Problem: Try this compound too: C[C@H](NC(=O)C1CC1)c1ccc(C2CCN(c3ncc(-c4ccc5c(c4)CCO5)cn3)CC2)cc1 [Example 10.98]
Result: Criterion met

Problem: Try this compound too: CNCCNC(=O)c1cnc(N2CCC(c3ccc([C@H](C)NC(C)=O)cc3)CC2)nc1 [Example 18.58]
Result: Criterion not met

Problem: Try this compound too: CCOc1ccc(N2CCC(c3ccc([C@H](C)NC(=O)c4cscn4)cc3)CC2)cc1 [Example 6.46]
Result: Criterion not met

Problem: Try this compound too: CC(=O)N[C@@H](C)c1ccc(C2CCN(c3cc(N(C)C(C)C)ncn3)CC2)cc1 [Example 11.48]
Result: Criterion met

Problem: Try this compound too: CC(=O)N[C@@H](C)c1ccc(C2CCN(c3cc(NC4CCCC4)ncn3)CC2)cc1 [Example 11.103]
Result: Criterion met

Problem: Try this compound too: COC(=O)N[C@@H](C)c1ccc(C2CCN(c3ccc(OC4CC4)cc3)CC2)cc1 [Example 1.113]
Result: Criterion met

Problem: Try this compound too: CC(=O)N[C@@H](C)c1ccc(C2CCN(c3cc(OCC(C)C)ncn3)CC2)cc1 [Example 11.15]
Result: Criterion met

Problem: Try this compound too: CCOc1ccc(-c2ccnc(N3CCC(c4ccc([C@H](C)NC(C)=O)cc4)CC3)n2)cc1 [Example 22.12]
Result: Criterion not met

Problem: Try this compound too: CC(=O)N[C@@H](C)c1ccc(C2CCN(c3cccc(C)n3)CC2)cc1 [Example 5.42]
Result: Criterion met

Problem: Try this compound too: CCCOc1ccc(N2CCC(c3ccc([C@H](C)NC(=O)OC)cc3)CC2)c(C#N)c1 [Example 1.131]
Result: Criterion met

Problem: Try this compound too: COc1cccc(-c2cnc(N3CCC(c4ccc([C@H](C)NC(C)=O)cc4)CC3)nc2)c1 [Example 10.3]
Result: Criterion met

Problem: Try this compound too: CC(=O)N[C@@H](C)c1ccc(C2CCN(c3cc(OCC4CC4)ncn3)CC2)cc1 [Example 11.108]
Result: Criterion met

Problem: Try this compound too: CC(=O)N[C@@H](C)c1ccc(C2CCN(c3cnccc3C)CC2)cc1 [Example 15.10]
Result: Criterion not met

Problem: Try this compound too: CCc1noc(N2CCC(c3ccc([C@H](C)NC(C)=O)cc3)CC2)n1 [Example 25.2]
Result: Criterion not met

Problem: Try this compound too: CCOc1ccc(N2CCC(c3ccc([C@H](C)NC(=O)N(CC)CC)cc3)CC2)cc1 [Example 14.67]
Result: Criterion met

Problem: Try this compound too: COC(=O)N[C@@H](C)c1ccc(C2CCN(c3ccc(OCC(C)C)cn3)CC2)cc1 [Example 1.134]
Result: Criterion met
